Each entry below carries its reported OD450.
TESTED SYSTEM: T1, Peptide 4: Biotin-AGGGGSGGGGSGGGGSAAA-Tyr-acid (N-terminal biotin; C-terminal acid)
T1 construct: control peptide without PC
T1 peptide: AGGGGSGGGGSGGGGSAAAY
EXPERIMENTAL PROTOCOL: scFv ELISA
Method: For ELISA analysis of scFv binding, 96-well polystyrene plates were coated with Peptide 1, 4, 5, 8 or 100 μL BSA (10 μg/mL) in PBS at 4° C. overnight. […] All plates were washed three times with PBS-Tween before 40 μL aliquots of PPE were added to assay plates along with 50 μL 10% BSA, and plates were incubated for 1 hour at room temperature. […] The amount of scFv bound to each well was quantitated from absorbance measurement at 450 nm (OD450).
Entry rule: numbers only, all in OD450.

| BINDER | OD450 / OD450 |
| --- | --- |
| PcOxP_DB01_B09 (scFv, V domains shown, scFv in periplasmic extract) VH: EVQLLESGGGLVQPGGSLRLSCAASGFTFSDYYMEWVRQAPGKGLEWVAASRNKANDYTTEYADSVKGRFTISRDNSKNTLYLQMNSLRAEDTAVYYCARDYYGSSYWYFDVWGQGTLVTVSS VL: DIQMTQSPSSLSASVGDRVTITCTASESLYSSKHKVHYLAWYQQKPGKAPKLLIYGASNRYTGVPSRFSGSGSGTDFTLTISSLQPEDFATYYCAQFYHYPLTFGGGTKVEIK | 0.05 |

Next, consider the following binder.
Query string: Which OD450 is listed for PcOxP_DB02_D09 (scFv, V domains shown, scFv in periplasmic extract) VH: EVQLLESGGGLVQPGGSLRLSCAASGFTFSTFYMEWVRQAPGKGLEWVAASRNKANDYTTEYADSVKGRFTISRDNSKNTLYLQMNSLRAEDTAVYYCARDYYGSSYWYFDVWGQGTLVTVSS VL: DIQMTQSPSSLSASVGDRVTITCTASESLYSSKHKVHYLAWYQQKPGKAPKLLIYGASNRYGGVPSRFSGSGSGTDFTLTISSLQPEDFATYYCAQFYEYPLTFGGGTKVEIK ?
Result string: 0.05
